# test-method-notes: modulators of glucocorticoid suppression of NF-kB, cell-based, luciferase, IL-1B stimulus, dexamethasone (AID 624486);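 further: 100% = mean signal of vehicle control wells on the plate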
# experimental-parameters: NF-kB luciferase reporter, IL-1B + dexamethasone, luminescence; actives lie on both sides, concentration not given here
Threshold check on percent of negative control (+Dex): at or above 90% gives 1, strictly below gives -1.

| compound | class |
| --- | --- |
| Nc1nc(-c2ccc(F)cc2)c(-c2ccc3ncccc3n2)s1 | -1 |
| O=C1NC(=NCc2cccs2)SC1Cc1ccc2ncccc2c1 (stereo not given) | 1 |
| CN(C)c1ccc2[nH]c(O)c(C=Nc3ccc(S(N)(=O)=O)cc3)c2c1 | 1 |
| COc1ccc2ncn(-c3cc(O[C@H](C)c4ccccc4Cl)c(C(N)=O)s3)c2c1 | -1 |
| CC(=O)N[C@H](Cc1ccc(OP(=O)(O)O)cc1)C(=O)N[C@@H]1CCC(=O)N2CCC[C@@H](C(=O)N[C@H]3CCc4ccccc43)N2C1=O | 1 |

====

# test-method-notes: activators of macrophage pro-inflammatory response, cell-based, murine, luminescence (AID 652131)
# experimental-parameters: murine macrophage pro-inflammatory reporter, active compounds read high
Threshold check on z-score: at or above 1 gives Y, strictly below gives N.

| compound | class |
| --- | --- |
| CCn1c(-c2nonc2N)nc2c(C#CC(C)(C)O)ncc(OCC3CCNCC3)c21 | Y |
| CCn1c(-c2nonc2N)nc2cncc(C(=O)N3CC[C@H](N)C3)c21 | Y |
| CCn1c(-c2nonc2N)nc2cnc(Oc3cccc(NC(=O)c4ccc(OCCN5CCOCC5)cc4)c3)cc21 | Y |
| Cc1ccc2c(-c3ccnc(Nc4cccc(C(F)(F)F)c4)n3)c(-c3ccccc3)nn2n1 | N |
| COc1ccc2cc(-c3c(-c4ccncc4)nc(-c4ccc(S(C)=O)cc4C)n3C)ccc2c1 (stereo not given) | N |
| Fc1cccc(COc2ccc(Nc3ncncc3C#Cc3ccccc3)cc2Cl)c1 | N |
| O=C1Nc2ccccc2/C1=C1\CCc2cc(O)ccc21 | Y |
| Oc1cccc(-c2nc(-c3ccccc3)[nH]c2-c2ccncc2)c1 | Y |
| CC(C)c1ccc2c(N=Nc3ccc(S(N)(=O)=O)cc3)c(O)[nH]c2c1 | N |

====

# log fold change Tl+ flux listing for each entry below
# Tested on: R275C/Slo1WT/beta2
# test-method-notes: modulators of BK channel variants, profiling panel, selectivity assay, cell-based, U2OS BacMam, thallium flux, beta subunits (AID 1259406);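 further: initial slope of Thallos dye fluorescence rise after thallium is added; log ratio against the mean of 0.3% DMSO vehicle wells on the same plate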
# experimental-parameters: at 30 µM

| compound | log fold change Tl+ flux |
| --- | --- |
| CC(=O)CC(c1ccccc1)c1c(O)c2ccccc2oc1=O (stereo not drawn) | 0.0306 |
| COc1ccc(OC)c(C(O)CNC(=O)CN)c1 (stereo not drawn) | 0.0391 |
| CCc1nc(N)nc(N)c1-c1ccc(Cl)cc1 | -0.0705 |

====

# assayed-system: Cellular tumor antigen p53 (Homo sapiens) (UniProt P04637)
# Sequence (P04637 whole entry, looked up): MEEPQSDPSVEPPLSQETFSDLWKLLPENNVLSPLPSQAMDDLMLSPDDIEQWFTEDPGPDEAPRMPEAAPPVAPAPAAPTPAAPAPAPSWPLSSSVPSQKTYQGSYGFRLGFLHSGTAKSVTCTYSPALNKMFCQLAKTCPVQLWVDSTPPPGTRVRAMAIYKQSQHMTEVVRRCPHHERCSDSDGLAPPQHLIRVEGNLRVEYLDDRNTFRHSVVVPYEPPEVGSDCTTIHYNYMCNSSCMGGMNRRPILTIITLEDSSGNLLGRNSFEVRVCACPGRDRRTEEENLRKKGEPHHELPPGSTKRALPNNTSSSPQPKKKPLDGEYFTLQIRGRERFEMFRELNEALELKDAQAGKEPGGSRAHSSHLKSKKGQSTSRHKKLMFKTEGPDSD
# test-method-notes: kinase inhibitors altering GFP-p53 stability in HPV16-positive cells, imaging, known kinase inhibitor set, EGFP/DsRed ratio (AID 1053116);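 further: cells exposed to compounds for 24 h at 37 °C before reading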
Activity calls are given as the source filed them. The rule behind the calls is not given here.
Outcomes: label 1 (active), label 0 (inactive)

| compound | class |
| --- | --- |
| OCc1ccc(-c2nc(-c3ccc4c(c3)OCO4)c(-c3ccccn3)[nH]2)cc1 | label 0 |
| CC(=O)N1CCC(Nc2ncc3cc(Oc4ccc(F)cc4F)c(=O)n(C)c3n2)CC1 | label 0 |
| COc1ccc(-c2nn3ncccc3c2-c2ccnc(Nc3ccc(Cl)c(C(F)(F)F)c3)n2)cc1 | label 0 |
| Cc1ccc(NC(=O)CC2CC2)cc1-c1ccc(C(=O)NCC2CC2)cc1 | label 0 |
| O=C1NC(=NCCCc2ccccc2)SC1=Cc1ccc2ncccc2c1 | label 0 |
| COC(=O)Nc1nc2ccc(Oc3cccc(NC(=O)Nc4cc(C(F)(F)F)ccc4F)c3)cc2[nH]1 | label 0 |
| c1ccc(Oc2ccc(Nc3ncc(-c4ccccc4)o3)cc2)cc1 | label 0 |
| CC1=C(C(=O)Nc2ccc3[nH]ncc3c2)C(c2ccc(F)cc2)NC(=O)N1 (configuration not stated) | label 0 |
| CNc1ncc2cc(Oc3ccc(F)cc3F)c(=O)n(C)c2n1 | label 0 |
| COc1cccc(C2=C(c3c(C)n(C)c4ccccc34)C(=O)NC2=O)c1 | label 0 |
| O=C1C(c2c[nH]c3ccccc23)=C(c2c[nH]c3ccccc23)C(=O)N1O | label 0 |
| O=C1NC(=NCCc2ccccc2Cl)SC1=Cc1ccc2ncccc2c1 | label 0 |
| O=C1NC(=NCCc2ccccc2F)SC1=Cc1ccc2ncccc2c1 | label 0 |
| Nc1c(C(=O)c2cccc(-c3ccncc3)c2)cnn1-c1ccc(F)cc1 | label 0 |
| Cn1c(=O)c(Cc2ccccc2F)cc2cnc(NC3CCOCC3)nc21 | label 0 |
| CC(=C1SC(=NCc2cccs2)NC1=O)c1ccc2ncccc2c1 | label 0 |
| Cc1[nH]nc2c1N=C(c1ccccc1F)c1cc(C#N)ccc1N2 | label 1 |
| CN(C)CCCNc1nccc(-c2c(-c3ccc(F)cc3)nn3cc(C(F)(F)F)ccc23)n1 | label 0 |
| CN1CCC(n2cnc(-c3ccc(F)cc3)c2-c2ccnc(NCCO)n2)CC1 | label 0 |
| Oc1[nH]c2ccccc2c1C=Nc1ccc(-n2cncn2)cc1 | label 0 |
| O=C(Nc1n[nH]c2nc(-c3ccco3)c(Br)cc12)C1CC1 | label 0 |
| Nc1c(C(=O)c2cccc(-c3cccnc3)c2)cnn1-c1ccc(F)cc1 | label 0 |

====

# test-method-notes: Cy5 fluorescence interference with SSB-bound oligo, artefact control for HCV NS3 helicase inhibitor project, biochemical, NIH Clinical Collection, E. coli SSB (AID 743268)
# fluorescence ratio listing for each entry below

| compound | fluorescence ratio |
| --- | --- |
| CC(C)C1CCC(C(=O)N[C@H](Cc2ccccc2)C(=O)O)CC1 (stereo partly specified) | 1.01 |
| CS(=O)(=O)OCCCCOS(C)(=O)=O | 1.02 |
| CC(=O)OCC(=O)[C@@]12OC(C)(C)O[C@@H]1C[C@H]1[C@@H]3C[C@H](F)C4=CC(=O)C=C[C@]4(C)[C@@]3(F)[C@@H](O)C[C@@]12C | 1.05 |
| NS(=O)(=O)c1cc(C2(O)NC(=O)c3ccccc32)ccc1Cl (stereo unspecified) | 0.81 |
| CN1C(C(=O)Nc2ccccn2)=C(O)c2ccccc2S1(=O)=O | 1.01 |
| CCOC(=O)[C@H](CCc1ccccc1)N[C@H]1CCc2ccccc2N(CC(=O)O)C1=O | 1.03 |
| CCCCCCNC(=O)n1cc(F)c(=O)[nH]c1=O | 1.03 |
| CN(C)CCCN1c2ccccc2Sc2ccc(Cl)cc21 | 1.03 |
| CN(C)CCOC(C)(c1ccccc1)c1ccccn1 (stereo unspecified) | 1.04 |
| CCCSc1ccc2nc(NC(=O)OC)[nH]c2c1 | 1.01 |
| C#C[C@]1(O)CC[C@H]2[C@@H]3CCC4=CC(=O)CC[C@@H]4[C@H]3CC[C@@]21CC | 1.02 |
| CC1(C)O[C@@H]2C[C@H]3[C@@H]4C[C@H](F)C5=CC(=O)C=C[C@]5(C)[C@H]4[C@@H](O)C[C@]3(C)[C@]2(C(=O)CO)O1 | 1.07 |
| O=C1c2c(O)ccc(O)c2C(=O)c2c(NCCNCCO)ccc(NCCNCCO)c21 | 0.74 |
| OCCN(CCO)c1nc(N2CCCCC2)c2nc(N(CCO)CCO)nc(N3CCCCC3)c2n1 | 0.96 |
| CC(=O)OCC(=O)[C@@]1(O)CC[C@H]2[C@@H]3CCC4=CC(=O)C=C[C@]4(C)[C@H]3[C@@H](O)C[C@@]21C | 0.95 |
| O=c1[nH]cc(F)c(=O)[nH]1 | 0.97 |
| Nc1nc2ccc(OC(F)(F)F)cc2s1 | 0.95 |
| CCc1cccc2c3c([nH]c12)C(CC)(CC(=O)O)OCC3 (stereo unspecified) | 1.05 |
| OC(CCN1CCCCC1)(c1ccccc1)C1CCCCC1 (stereo unspecified) | 0.99 |
| CC1(C)O[C@@H]2[C@@H](CO[C@@]3(COS(N)(=O)=O)OC(C)(C)O[C@@H]23)O1 | 1.04 |
| COCCOC(=O)C1=C(C)NC(C)=C(C(=O)OC(C)C)C1c1cccc([N+](=O)[O-])c1 (stereo unspecified) | 0.87 |

====

# test-method-notes: stimulators of nuclear beta-catenin in C2C12, primary screen, imaging, WNT3A-conditioned medium, mouse C2C12, NPC library (AID 1117326)
# experimental-parameters: at 10 µM
Active and inactive are the calls of the source. No stated cut-off is given here; in the data, active means nuclear beta-catenin stimulation mostly above about 4.2% (no sharp cut-off); inactive means mostly below about 10%.
Outcomes: TRUE for active, FALSE for inactive

| compound | class |
| --- | --- |
| Nc1nc(=O)n([C@@H]2O[C@H](CO)[C@@H](O)[C@@H]2F)cc1I | FALSE |
| CC(=O)/C=C/C=C1/C2CCC(C2)C1(C)C (stereo unspecified) | FALSE |
| COc1cc([C@@H]2c3cc4c(cc3[C@@H](O[C@@H]3O[C@@H]5CO[C@@H](C)O[C@@H]5[C@H](O)[C@@H]3O)[C@H]3COC(=O)[C@H]23)OCO4)cc(OC)c1O | TRUE |
| COc1ccc2c(c1)c(CC(=O)O)c(C)n2C(=O)c1ccc(Cl)cc1 | FALSE |
| COc1ccc2cc(C=O)ccc2c1 | FALSE |
| NS(=O)(=O)c1cc2c(cc1Cl)CN(C1CCCCC1)C2=O | FALSE |
| CCS(=O)(=O)c1ccc(OC)c(C(=O)OC)c1 | FALSE |
| N#C[C@H]1C[C@H]2C[C@@H]2N1C(=O)[C@@H](N)C12CC3CC(CC(O)(C3)C1)C2 | FALSE |
| Nc1nnnn1-c1ccccc1 | FALSE |
| CC(C)NCCCC1(C(N)=O)c2ccccc2-c2ccccc21 | FALSE |
| CCCOC(C(=O)OC1CCN(C)CC1)(c1ccccc1)c1ccccc1 | FALSE |
